The measurements presented in this section are drawn from PubChem BioAssay AID1259407.

Tested on: CCRIS mutagenicity, Ames/micronucleus/aberration tests
EXPERIMENTAL PROTOCOL: CCRIS mutagenicity studies
SETTINGS: Test System: AMES SALMONELLA TYPHIMURIUM; Strain/Indicator: TA98; Metabolic Activation: RAT, LIVER, S-9, AROCLOR 1254; Method: PREINCUBATION
The source made the active and inactive calls. The rule behind the calls is not given here.
Labels: Y for active, N for inactive

>  <COMPOUND>
C[Si](C)(Cl)Cl

>  <CLASS NAME>
N

$$$$
>  <COMPOUND>
Cc1ccc(NO)cc1

>  <CLASS NAME>
N

$$$$
>  <COMPOUND>
O=NN1C(C(=O)O)CSC1C(O)C(O)C(O)C(O)CO (configuration not stated)

>  <CLASS NAME>
N

$$$$
>  <COMPOUND>
O=c1oc2cccc3ccc4cccc1c4c32

>  <CLASS NAME>
N

$$$$
>  <COMPOUND>
O=C(O)/C=C/c1ccc([N+](=O)[O-])cc1

>  <CLASS NAME>
Y

$$$$
>  <COMPOUND>
Cn1cnc2c3cccnc3ccc21

>  <CLASS NAME>
Y

$$$$
>  <COMPOUND>
O=C1NCCN1c1ncc([N+](=O)[O-])s1

>  <CLASS NAME>
Y

$$$$
>  <COMPOUND>
O=c1oc2c([N+](=O)[O-])ccc3ccc4cccc1c4c32

>  <CLASS NAME>
Y

$$$$
>  <COMPOUND>
Cc1ccsc1

>  <CLASS NAME>
N

$$$$
>  <COMPOUND>
Cc1ncc[nH]1

>  <CLASS NAME>
N

$$$$
>  <COMPOUND>
CC1CS1 (configuration not stated)

>  <CLASS NAME>
N

$$$$
>  <COMPOUND>
Brc1ccccc1

>  <CLASS NAME>
N

$$$$
>  <COMPOUND>
Oc1cc2c(cc1O)[C@@H]1c3ccc(O)c(O)c3OC[C@]1(O)C2

>  <CLASS NAME>
N

$$$$
>  <COMPOUND>
CCCCC(CC)COC(=O)c1ccc(N(C)N=O)cc1 (configuration not stated)

>  <CLASS NAME>
N

$$$$
>  <COMPOUND>
OC/C(Br)=C(\Br)CO

>  <CLASS NAME>
Y

$$$$
>  <COMPOUND>
CCCCC1C(=O)N(c2ccccc2)N(c2ccccc2)C1=O

>  <CLASS NAME>
N

$$$$
>  <COMPOUND>
Cc1ccccc1N=O

>  <CLASS NAME>
N

$$$$
>  <COMPOUND>
COc1cc(C(C)=O)ccc1O

>  <CLASS NAME>
N

$$$$
>  <COMPOUND>
CC(=O)CC(C)C

>  <CLASS NAME>
N

$$$$
>  <COMPOUND>
Cc1nc(N)cc2[nH]c3ccccc3c12

>  <CLASS NAME>
Y

$$$$
>  <COMPOUND>
Cn1c(N)nc2ccccc21

>  <CLASS NAME>
Y

$$$$
>  <COMPOUND>
O=c1oc2ccc([N+](=O)[O-])c3ccc4cccc1c4c23

>  <CLASS NAME>
Y

$$$$

----------
System: CCRIS mutagenicity, Ames/micronucleus/aberration tests
EXPERIMENTAL PROTOCOL: CCRIS mutagenicity studies
SETTINGS: Test System: AMES SALMONELLA TYPHIMURIUM; Strain/Indicator: TA100; Metabolic Activation: HAMSTER, LIVER, S-9, AROCLOR 1254 (30%); Method: PREINCUBATION
The source made the active and inactive calls. How the calls were made is not given here.
Outcome codes: 1.0 for active, 0.0 for inactive

>  <COMPOUND>
CC(C)(C)c1ccc(OCC2CO2)cc1 (stereo not drawn)

>  <CLASS NAME>
0.0

$$$$
>  <COMPOUND>
COC[CH2][Hg][Cl]

>  <CLASS NAME>
0.0

$$$$
>  <COMPOUND>
CC(=O)CC(C)C

>  <CLASS NAME>
0.0

$$$$
>  <COMPOUND>
CC1OC1C (stereo not drawn)

>  <CLASS NAME>
0.0

$$$$
>  <COMPOUND>
CCN(CC)c1ccc2c(-c3ccccc3C(=O)O)c3ccc(=[N+](CC)CC)cc-3oc2c1

>  <CLASS NAME>
0.0

$$$$
>  <COMPOUND>
COc1ccc(N=[N+]([O-])c2ccc(OC)cc2)cc1

>  <CLASS NAME>
0.0

$$$$
>  <COMPOUND>
Nc1c(Cl)cc(Cl)cc1Cl

>  <CLASS NAME>
0.0

$$$$
>  <COMPOUND>
COc1ccccc1O

>  <CLASS NAME>
0.0

$$$$
>  <COMPOUND>
Clc1ccc(C(Cl)(Cl)Cl)cc1Cl

>  <CLASS NAME>
1.0

$$$$
>  <COMPOUND>
CCCCCCC(=O)O

>  <CLASS NAME>
0.0

$$$$
>  <COMPOUND>
CCOP(=O)(NC(C)C)Oc1ccc(SC)c(C)c1 (stereo not drawn)

>  <CLASS NAME>
0.0

$$$$
>  <COMPOUND>
CC1CCCC1

>  <CLASS NAME>
0.0

$$$$
>  <COMPOUND>
COC(=O)C(c1ccccc1)C1CCCCN1 (stereo not drawn)

>  <CLASS NAME>
0.0

$$$$
>  <COMPOUND>
Nc1ccc2ccccc2c1

>  <CLASS NAME>
1.0

$$$$
>  <COMPOUND>
CN(C)c1ccc(N)cc1

>  <CLASS NAME>
0.0

$$$$
>  <COMPOUND>
S=c1nc[nH]c2nc[nH]c12

>  <CLASS NAME>
0.0

$$$$
>  <COMPOUND>
Nc1ccccc1Cl

>  <CLASS NAME>
0.0

$$$$
>  <COMPOUND>
O=[N+]([O-])c1ccccc1Nc1ccccc1

>  <CLASS NAME>
0.0

$$$$
